B1: RNA-binding E3 ubiquitin-protein ligase MEX3C, residues 325 to 391; numbered along this chain, Q5U5Q3 (parent)
chain: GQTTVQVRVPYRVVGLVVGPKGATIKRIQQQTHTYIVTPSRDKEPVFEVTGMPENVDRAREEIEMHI

Variants of: B1
METHOD DESCRIPTION: abundance fitness (aPCA) (normalised: wild type 0, dead -1); higher = more abundant; growth selection in yeast, the domain comes from the species named
COND: Homo sapiens
Class boundaries, taken from values of abundance fitness, are as follows: low value (below -0.6), medium value (-0.6 to below -0.4), high value (-0.4 or more)

1) Q29E    high value
2) T24E    high value
3) E44S    medium value
4) Y35F    high value
5) T24G    high value

// query State the class of the variant shown: R41K
// result high value

// query Bin? G22N
// result low value

// query Into which bin does this variant go? T34M
// result low value

// query Which class does Q31R fall in?
// result high value

// query Lab note: sort I28Q into the matching abundance fitness band.
// result medium value

// query Any idea which band E48P is in?
// result low value

// query Record E44P — which class?
// result high value

// query Which category fits this record: R27S
// result medium value

// query Which band does Q31P fall in?
// result low value

// query State the class of the variant shown: E54L
// result high value

// query Sort R27P into one of the categories.
// result low value

// query Pick a category. Item: M52E
// result high value

// query Band for the recorded abundance fitness of T34P ?
// result low value

// query Please classify: V49C
// result low value

// query Class label required: G19T
// result low value

Every entry's value here was drawn from the Human Domainome abundance scans (Beltran et al. 2025).
